Source: patent US20240279318A1

Molecular target: T1, AFP158/HLA-A*02:01 complex (human)
T1 construct: flowed over the chip in SPR; also called AFP158 pro
Assay: SPR, scFv captured, pMHC in flow;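 also: complex injected at several concentrations over crude scFv, association then running-buffer dissociation, KD estimated from kinetic on- and off-rate constants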
Measured attribute: pKd
Quick note: pKd values are minus log10 of concentrations in mol/L.

// query If you can, please state the reported pKd value of LD97F (scFv, AS170036 VL1VH1 scFv mutein) scFv: QSALTQPRSVSGSPGQSVTISCAGTSSDVGSENYVSWYQQHPGKAPKLMIYQVNKRASGVPDRFSGSKSGNTASLTISGLQAEDEADYYCASYRSSFHNIVFGGGTKLTVLGGGGSGGGGSGGGGSEVQLVESGGGLVQPGGSLRLSCAASGFTFSSYAMSWVRQAPGKGLEWVSTINSGTGSPYYADSVKGRFTISRDNSKNTLYLQMNSLRAEDTAVYYCAKNFFDGSWFLGPPAMDYWGQGTLVTVSSHHHHHH .
// result 6.35
